# testedSystem: human somatostatin receptor subtype 2 (Homo sapiens)
# Construct: expressed in transfected cells
# Sequence (P30874 whole entry): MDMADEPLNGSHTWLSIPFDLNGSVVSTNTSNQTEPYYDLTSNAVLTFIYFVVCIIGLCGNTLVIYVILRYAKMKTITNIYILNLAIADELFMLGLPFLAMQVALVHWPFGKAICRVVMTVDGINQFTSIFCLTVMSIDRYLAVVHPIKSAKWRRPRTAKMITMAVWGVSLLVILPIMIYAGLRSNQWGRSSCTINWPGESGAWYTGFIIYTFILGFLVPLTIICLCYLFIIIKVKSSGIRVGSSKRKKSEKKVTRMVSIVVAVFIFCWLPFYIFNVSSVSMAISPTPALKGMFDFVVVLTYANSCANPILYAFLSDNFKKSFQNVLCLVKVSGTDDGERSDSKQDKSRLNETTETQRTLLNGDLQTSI
# experiment: Functional assay for SSTR2 agonists (HTRF cAMP)
# Format: cell-based
# conditionDetails: CHO-K1 cells stably expressing human SST2; NKH477-stimulated cAMP; 20 min at 37 C; read-out: hSST2 cAMP Avg EC50
pEC50: −log10 of the molar value.
measure: pEC50

chemicalsmiles=CC[C@H](C)[C@@H]([C@@H](CC(=O)N1CCC[C@H]1[C@H](OC)[C@@H](C)C(=O)N[C@H](C)[C@@H](O)c1ccccc1)OC)N(C)C(=O)[C@@H](NC(=O)[C@H](C(C)C)N(C)C(=O)OCc1ccc(NC(=O)[C@H](CCCNC(N)=O)NC(=O)[C@@H](NC(=O)c2cc(NC(=O)CCCC(=O)NCCNc3ncc(-c4cc(C)cc(F)c4)c(N4CCC(N)CC4)c3-c3nc4ccc(Cl)cc4[nH]3)cc(C(=O)NC[C@@H](N)C(=O)O)c2)C(C)C)cc1)C(C)C testedsystem="human somatostatin receptor subtype 2 (Homo sapiens)" measure=pEC50 assayresult=9.51
chemicalsmiles=CC[C@H](C)[C@@H]([C@@H](CC(=O)N1CCC[C@H]1[C@H](OC)[C@@H](C)C(=O)N[C@H](C)[C@@H](O)c1ccccc1)OC)N(C)C(=O)[C@@H](NC(=O)[C@H](C(C)C)N(C)C(=O)OCc1ccc(NC(=O)[C@H](CCCNC(N)=O)NC(=O)[C@@H](NC(=O)C[C@@H](N)C(=O)NCCOCCC(=O)NCCNc2ncc(-c3cc(C)cc(F)c3)c(N3CCC(N)CC3)c2-c2nc3ccc(Cl)cc3[nH]2)C(C)C)c(O[C@@H]2O[C@H](C(=O)NCC(=O)O)[C@@H](O)[C@H](O)[C@H]2O)c1)C(C)C testedsystem="human somatostatin receptor subtype 2 (Homo sapiens)" measure=pEC50 assayresult=10.00
chemicalsmiles=CC[C@H](C)[C@@H]([C@@H](CC(=O)N1CCC[C@H]1[C@H](OC)[C@@H](C)C(=O)N[C@H](C)[C@@H](O)c1ccccc1)OC)N(C)C(=O)[C@@H](NC(=O)[C@H](C(C)C)N(C)C(=O)OCc1ccc(NC(=O)[C@H](CCCNC(N)=O)NC(=O)[C@@H](NC(=O)[C@H](CCC(=O)O)NC(=O)CCOCCC(=O)NCCNc2ncc(-c3cc(C)cc(F)c3)c(N3CCC(N)CC3)c2-c2nc3ccc(Cl)cc3[nH]2)C(C)C)cc1C(=O)NOC)C(C)C testedsystem="human somatostatin receptor subtype 2 (Homo sapiens)" measure=pEC50 assayresult=9.24
chemicalsmiles=CC[C@H](C)[C@@H]([C@@H](CC(=O)N1CCC[C@H]1[C@H](OC)[C@@H](C)C(=O)N[C@H](C)[C@@H](O)c1ccccc1)OC)N(C)C(=O)[C@@H](NC(=O)[C@H](C(C)C)N(C)C(=O)OCc1ccc(NC(=O)[C@H](C)NC(=O)[C@@H](NC(=O)CCOCCn2cc(CCC(=O)NCCNc3ncc(-c4cc(C)cc(F)c4)c(N4CCC(N)CC4)c3-c3nc4ccc(Cl)cc4[nH]3)nn2)C(C)C)c(O[C@@H]2O[C@H](C(=O)O)[C@@H](O)[C@H](O)[C@H]2O)c1)C(C)C testedsystem="human somatostatin receptor subtype 2 (Homo sapiens)" measure=pEC50 assayresult=10.00
chemicalsmiles=CC[C@H](C)[C@@H]([C@@H](CC(=O)N1CCC[C@H]1[C@H](OC)[C@@H](C)C(=O)N[C@H](C)[C@@H](O)c1ccccc1)OC)N(C)C(=O)[C@@H](NC(=O)[C@H](C(C)C)N(C)C(=O)OCc1ccc(NC(=O)[C@H](C)NC(=O)[C@@H](NC(=O)CCOCCC(=O)NCCNc2ncc(-c3cc(C)cc(F)c3)c(N3CCC(N)CC3)c2-c2nc3ccc(Cl)cc3[nH]2)C(C)C)c(OCC(=O)O)c1)C(C)C testedsystem="human somatostatin receptor subtype 2 (Homo sapiens)" measure=pEC50 assayresult=9.80
